I'd be grateful if you could share measured selectivity ratio for these entries.
Assay: Selectivity index, ratio of GI50 for human THP1 cells to MIC for Mycobacterium tuberculosis H37Ra ATCC 25177 at dormant stage
Format: toxicity, cell-based, THP-1
Conditions: read-out: Selectivity Index
Numbers only.

Some solved cases for reference:
CCOc1ccc2nc(Cl)c(/C=C3\SC(=S)NC3=O)cc2c1    28.6
Cc1cccc2cc(/C=C3\SC(=S)NC3=O)c(Cl)nc12    7.8
O=C1NC(=S)S/C1=C\c1cc2cc(F)ccc2nc1Cl    5.6

Give one value of selectivity ratio per listed compound.
1. CO[C@H]1/C=C/O[C@@]2(C)Oc3c(C)c(O)c4c(O)c(c(/C=N/N5CCN(C)CC5)c(O)c4c3C2=O)NC(=O)/C(C)=C\C=C\[C@H](C)[C@H](O)[C@@H](C)[C@@H](O)[C@@H](C)[C@H](OC(C)=O)[C@@H]1C [RIFAMPIN]
2. COc1ccc2nc(Cl)c(/C=C3\SC(=S)NC3=O)cc2c1
3. Cc1cccc2cc(/C=C3\SC(=S)N(CC(=O)O)C3=O)c(Cl)nc12
4. O=C1NC(=S)S/C1=C\c1cc2cc(Cl)ccc2nc1Cl

OUTPUT:
1: 2500; 2: 20.8; 3: 5; 4: 15.6

---

Tested on: Mycobacterium tuberculosis
Assay: Growth inhibition of Mycobacterium tuberculosis H37Ra ATCC 25177 at active stage at 25 ug/ml measured after 8 days by XTT dye based two fold dilution method relative to control
Format: functional
Settings: H37Ra ATCC 25177, 192 h, read-out: GI
Endpoint: inhibition of growth at 25 µg/mL
Just so you know, I need the unit written after the number.

CCOc1ccc2nc(Cl)c(/C=C3\SC(=S)NC3=O)cc2c1    106%
O=C1NC(=S)S/C1=C\c1cc2cc(Cl)ccc2nc1Cl    100%

Look up inhibition of growth at 25 µg/mL for the entries below, preserving their order.
1. Cc1cccc2cc(/C=C3\SC(=S)NC3=O)c(Cl)nc12
2. O=C(O)CN1C(=O)/C(=C/c2cc3cc(F)ccc3nc2Cl)SC1=S
3. COc1ccc2cc(/C=C3\SC(=S)NC3=O)c(Cl)nc2c1

OUTPUT:
1: 105%; 2: 10.4%; 3: 109%

I need inhibition of growth at 25 µg/mL for every entry listed below, if you could help.
1. O=C1NC(=S)S/C1=C\c1cc2cc(F)ccc2nc1Cl
2. Cc1cccc2cc(/C=C3\SC(=S)N(CC(=O)O)C3=O)c(Cl)nc12
3. COc1ccc2nc(Cl)c(/C=C3\SC(=S)NC3=O)cc2c1

OUTPUT:
1: 101%; 2: 93.4%; 3: 90.2%

---

Tested on: Mycobacterium tuberculosis
Assay: Growth inhibition of Mycobacterium bovis BCG ATCC 35743 at active stage at 0.78 ug/ml measured after 8 days by nitrate reductase dye based two fold dilution method relative to control
Type: functional
Conditions: BCG str. ATCC 35743, 192 h, read-out: GI
Endpoint: inhibition of growth at 0.78 µg/mL (%)
Numbers only, in %.

Reference set, count: 3
O=C1NC(=S)S/C1=C\c1cc2cc(Cl)ccc2nc1Cl    7.4
O=C1NC(=S)S/C1=C\c1cc2cc(F)ccc2nc1Cl    -54.6
COc1ccc2nc(Cl)c(/C=C3\SC(=S)NC3=O)cc2c1    -67.9

Give inhibition of growth at 0.78 µg/mL for all molecules that follow.
1. COc1ccc2cc(/C=C3\SC(=S)NC3=O)c(Cl)nc2c1
2. Cc1cccc2cc(/C=C3\SC(=S)NC3=O)c(Cl)nc12
3. CCOc1ccc2nc(Cl)c(/C=C3\SC(=S)NC3=O)cc2c1

OUTPUT:
[-60.1, -28.7, -51.8]

---

Please go through the items and note down their inhibition of growth at 50 µg/mL.
Test system: Mycobacterium tuberculosis
Experiment: Growth inhibition of Mycobacterium tuberculosis H37Ra ATCC 25177 at active stage at 50 ug/ml measured after 8 days by XTT dye based two fold dilution method relative to control
Type: functional
Details: H37Ra ATCC 25177, 192 h, read-out: GI
Numbers only, in %.

Consider the worked cases shown below.
Cc1cccc2cc(/C=C3\SC(=S)NC3=O)c(Cl)nc12    102
COc1ccc2cc(/C=C3\SC(=S)NC3=O)c(Cl)nc2c1    102
O=C1NC(=S)S/C1=C\c1cc2cc(F)ccc2nc1Cl    119
O=C(O)CN1C(=O)/C(=C/c2cc3cc(F)ccc3nc2Cl)SC1=S    82.8

# batch size: 4; output inhibition of growth at 50 µg/mL per entry
1. COc1ccc2nc(Cl)c(/C=C3\SC(=S)NC3=O)cc2c1
2. Cc1cccc2cc(/C=C3\SC(=S)N(CC(=O)O)C3=O)c(Cl)nc12
3. O=C1NC(=S)S/C1=C\c1cc2cc(Cl)ccc2nc1Cl
4. CCOc1ccc2nc(Cl)c(/C=C3\SC(=S)NC3=O)cc2c1

OUTPUT:
101
107
97.5
100

---

System: Mycobacterium tuberculosis
Experiment: Growth inhibition of Mycobacterium tuberculosis H37Ra ATCC 25177 at active stage at 100 ug/ml measured after 8 days by XTT dye based two fold dilution method relative to control
Type: functional
Details: H37Ra ATCC 25177, 192 h, read-out: GI
Endpoint: inhibition of growth at 100 µg/mL (%)
One number for each entry, in %.

O=C1NC(=S)S/C1=C\c1cc2cc(F)ccc2nc1Cl    101

Please state inhibition of growth at 100 µg/mL for every compound in the list that follows.
1. Cc1cccc2cc(/C=C3\SC(=S)N(CC(=O)O)C3=O)c(Cl)nc12
2. Cc1cccc2cc(/C=C3\SC(=S)NC3=O)c(Cl)nc12
3. COc1ccc2cc(/C=C3\SC(=S)NC3=O)c(Cl)nc2c1
4. CCOc1ccc2nc(Cl)c(/C=C3\SC(=S)NC3=O)cc2c1

OUTPUT:
[98.5, 113, 96.4, 111]

Provide inhibition of growth at 100 µg/mL values for the following items, in order.
1. COc1ccc2nc(Cl)c(/C=C3\SC(=S)NC3=O)cc2c1
2. O=C(O)CN1C(=O)/C(=C/c2cc3cc(F)ccc3nc2Cl)SC1=S
3. O=C1NC(=S)S/C1=C\c1cc2cc(Cl)ccc2nc1Cl

OUTPUT:
1: 90.3; 2: 100; 3: 92.7

---

System: Aspergillus flavus
Assay: Antifungal activity against Aspergillus flavus NCIM 539 by standard agar method
Assay type: functional
Endpoint: MIC (µg/mL)
Answers are plain numbers, in µg/mL.

Here is how some compounds turned out for MIC.
O=C1NC(=S)S/C1=C\c1cc2ccccc2nc1Cl    150
O=C1NC(=S)S/C1=C\c1cc2cc(Cl)ccc2nc1Cl    125
Cc1ccc2nc(Cl)c(/C=C3\SC(=S)N(CCC(=O)O)C3=O)cc2c1    150
Clc1ccc(COC(Cn2ccnc2)c2ccc(Cl)cc2Cl)c(Cl)c1 (configuration not stated)    12.5
O=C(O)CCN1C(=O)/C(=C/c2cc3cc(F)ccc3nc2Cl)SC1=S    25

Look at each compound and report its MIC.
1. Cc1cccc2cc(/C=C3\SC(=S)N(CC(=O)O)C3=O)c(Cl)nc12
2. COc1ccc2nc(Cl)c(/C=C3\SC(=S)N(CC(=O)O)C3=O)cc2c1
3. Cc1ccc2cc(/C=C3\SC(=S)N(CC(=O)O)C3=O)c(Cl)nc2c1
4. CCOc1ccc2nc(Cl)c(/C=C3\SC(=S)NC3=O)cc2c1
5. Cc1ccc2nc(Cl)c(/C=C3\SC(=S)N(CC(=O)O)C3=O)cc2c1
6. O=C(O)CCN1C(=O)/C(=C/c2cc3cc(Cl)ccc3nc2Cl)SC1=S
7. COc1ccc2cc(/C=C3\SC(=S)N(CC(=O)O)C3=O)c(Cl)nc2c1

OUTPUT:
1. 100
2. 200
3. 100
4. 50
5. 150
6. 100
7. 125

Your task in this section: give MIC for each listed record.
1. Cc1ccc2nc(Cl)c(/C=C3\SC(=S)NC3=O)cc2c1
2. O=C(O)CN1C(=O)/C(=C/c2cc3cc(Cl)ccc3nc2Cl)SC1=S
3. Cc1ccc2cc(/C=C3\SC(=S)N(CCC(=O)O)C3=O)c(Cl)nc2c1
4. COc1ccc2cc(/C=C3\SC(=S)N(CCC(=O)O)C3=O)c(Cl)nc2c1
5. Cc1ccc2cc(/C=C3\SC(=S)NC3=O)c(Cl)nc2c1

OUTPUT:
[125, 150, 150, 100, 50]

Look at each compound and report its MIC.
1. Cc1cccc2cc(/C=C3\SC(=S)N(CCC(=O)O)C3=O)c(Cl)nc12
2. COc1ccc2nc(Cl)c(/C=C3\SC(=S)NC3=O)cc2c1
3. Cc1cccc2cc(/C=C3\SC(=S)NC3=O)c(Cl)nc12
4. CCOc1ccc2nc(Cl)c(/C=C3\SC(=S)N(CCC(=O)O)C3=O)cc2c1
5. COc1ccc2nc(Cl)c(/C=C3\SC(=S)N(CCC(=O)O)C3=O)cc2c1
6. COc1ccc2cc(/C=C3\SC(=S)NC3=O)c(Cl)nc2c1
7. CCOc1ccc2nc(Cl)c(/C=C3\SC(=S)N(CC(=O)O)C3=O)cc2c1

OUTPUT:
150
100
100
100
100
100
100

Dear reader, for each entry below, please note its MIC.
1. O=C(O)CCN1C(=O)/C(=C/c2cc3ccccc3nc2Cl)SC1=S
2. O=C(O)CN1C(=O)/C(=C/c2cc3cc(F)ccc3nc2Cl)SC1=S
3. O=C1NC(=S)S/C1=C\c1cc2cc(F)ccc2nc1Cl

OUTPUT:
1. 50
2. 100
3. 12.5
